# System: NCI-H460
# TEST NAME: cells
# TEST CONTEXT: Homo sapiens, NCI-H460, 48 h
# Description: Antiproliferative activity against human NCI-H460 cells assessed as reduction in cell viability incubated for 48 hrs by sulphorhodamine B assay
# note: boundary value 1 µM maps to Not met; GI50 below it maps to Met

Known results for compounds:
O=C1c2cnc3cccc(Cl)c3c2C(=O)c2[nH]c3ccccc3c21	Not met
COc1cccc2c3c(cnc12)C(=O)c1c([nH]c2ccccc12)C3=O	Not met

As a next step, examine the compound that follows.
**Query** In plain terms, does CN(C)CCCNc1nc2ccccc2c2cc3[nH]c4ccccc4c3cc12 come in under 1 µM for GI50?
**Result** Not met

###

Parameter GI50: see the listing below.
# Test system: HeLa
Provide only the numeric value, understood in nM.

Example results:
Nc1nc2ccccc2c2cc3[nH]c4ccccc4c3cc12	800
COc1cccc2c3c(cnc12)C(=O)c1c([nH]c2ccccc12)C3=O	390
Fc1ccc2c(c1)ncc1cc3c(cc12)[nH]c1ccccc13	20
O=C1c2[nH]c3ccccc3c2C(=O)c2cnc3cc(Cl)ccc3c21	70
O=C1c2[nH]c3ccccc3c2C(=O)c2cnc3ccc(Br)cc3c21	290

**Query** Form entry - test system: HeLa; read-out: GI50; compound: Cc1c2cnc3ccccc3c2cc2[nH]c3ccccc3c12
**Result** 360

**Query** Identify the measured GI50 of Clc1ccc2c(c1)ncc1cc3c(cc12)[nH]c1ccccc13 for HeLa.
**Result** 430

###

# System: NCI-H460
hey, just use class 1 if measured GI50 is less than 1000 nM, otherwise class 0

Example entries and their recorded answers appear below.
Cc1c2cnc3ccccc3c2cc2[nH]c3ccccc3c12	class 0
O=C1c2[nH]c3ccccc3c2C(=O)c2cnc3ccc(Cl)cc3c21	class 1
O=C1c2cnc3c(Cl)cccc3c2C(=O)c2[nH]c3ccccc3c21	class 0
Clc1ccc2c(c1)ncc1cc3c(cc12)[nH]c1ccccc13	class 0

**Query** I wonder whether O=C1c2[nH]c3ccccc3c2C(=O)c2cnc3cc(F)c(Br)cc3c21 has GI50 below 1000 nM. Can you tell?
**Result** class 0

**Query** API: query returns whether the compound falls strictly under 1000 nM in GI50. Query: O=C1c2cnc3c(Cl)cc(Cl)cc3c2C(=O)c2[nH]c3ccccc3c21
**Result** class 1

**Query** Does CC[C@@]1(O)C(=O)OCc2c1cc1n(c2=O)Cc2cc3ccccc3nc2-1 have GI50 strictly under 1000 nM?
**Result** class 1

**Query** Criterion: GI50 strictly below 1000 nM. Is it met by Nc1nc2cc(F)ccc2c2cc3[nH]c4ccccc4c3cc12 ?
**Result** class 1

**Query** Does Nc1nc2cc(Cl)ccc2c2cc3[nH]c4ccccc4c3cc12 have GI50 strictly under 1000 nM?
**Result** class 0

**Query** # check: GI50 < 1000 nM for c1ccc2c(c1)ccc1cc3c(cc12)[nH]c1ccccc13
**Result** class 0

**Query** Say whether its GI50 is strictly beneath 1000 nM. Entry: COc1cc2ncc3c(c2cc1OC)C(=O)c1[nH]c2ccccc2c1C3=O
**Result** class 0

**Query** Hello, is GI50 of the following compound strictly smaller than 1000 nM? O=C1c2[nH]c3ccccc3c2C(=O)c2cnc3cc(Br)ccc3c21
**Result** class 0

**Query** Hello, is GI50 of the following compound strictly smaller than 1000 nM? O=C1c2c[n+]([O-])c3ccccc3c2C(=O)c2[nH]c3ccccc3c21
**Result** class 1

**Query** Hello, is GI50 of the following compound strictly smaller than 1000 nM? O=C1c2[nH]c3ccccc3c2C(=O)c2cnc3ccc(Br)cc3c21
**Result** class 0

###

Parameter: GI50. Scope: all listed entries.
# Test system: HeLa

COc1ccc2ncc3c(c2c1)C(=O)c1[nH]c2ccccc2c1C3=O	> 4 µM

**Query** # returns recorded GI50 (system: HeLa) for COc1cc2ncc3c(c2cc1OC)C(=O)c1[nH]c2ccccc2c1C3=O
**Result** > 4 µM

**Query** Param readout= GI50; system= HeLa; entry= c1ccc2c(c1)ccc1cc3c(cc12)[nH]c1ccccc13 ; returns value.
**Result** > 4 µM

**Query** Short answer please: GI50, HeLa, entry O=C1c2[nH]c3ccccc3c2C(=O)c2cnc3cc4c(cc3c21)OCO4
**Result** > 4 µM

**Query** Provide value of GI50 for this record tested with HeLa: O=C1c2cnc3c(Cl)cccc3c2C(=O)c2[nH]c3ccccc3c21
**Result** > 4 µM

###

# Tested on: NCI-H460
MEASURED PROPERTY: GI50 (nM)
Response body: numeric value in nM, unit text excluded.

Below are worked cases with known answers.
Nc1nc2ccccc2c2cc3[nH]c4ccccc4c3cc12	1000
c1ccc2c(c1)ncc1cc3c(cc12)[nH]c1ccccc13	5500
Cc1c2cnc3cc(F)ccc3c2cc2[nH]c3ccccc3c12	40

**Query** Which GI50 is reported with NCI-H460 for this entry: O=C1c2[nH]c3ccccc3c2C(=O)c2cnc3cc(Cl)ccc3c21 ?
**Result** 1400
